- test.target: Bcr/Abl fusion protein (Homo sapiens)
- Sequence (P00519 whole entry, the tested form may be a part): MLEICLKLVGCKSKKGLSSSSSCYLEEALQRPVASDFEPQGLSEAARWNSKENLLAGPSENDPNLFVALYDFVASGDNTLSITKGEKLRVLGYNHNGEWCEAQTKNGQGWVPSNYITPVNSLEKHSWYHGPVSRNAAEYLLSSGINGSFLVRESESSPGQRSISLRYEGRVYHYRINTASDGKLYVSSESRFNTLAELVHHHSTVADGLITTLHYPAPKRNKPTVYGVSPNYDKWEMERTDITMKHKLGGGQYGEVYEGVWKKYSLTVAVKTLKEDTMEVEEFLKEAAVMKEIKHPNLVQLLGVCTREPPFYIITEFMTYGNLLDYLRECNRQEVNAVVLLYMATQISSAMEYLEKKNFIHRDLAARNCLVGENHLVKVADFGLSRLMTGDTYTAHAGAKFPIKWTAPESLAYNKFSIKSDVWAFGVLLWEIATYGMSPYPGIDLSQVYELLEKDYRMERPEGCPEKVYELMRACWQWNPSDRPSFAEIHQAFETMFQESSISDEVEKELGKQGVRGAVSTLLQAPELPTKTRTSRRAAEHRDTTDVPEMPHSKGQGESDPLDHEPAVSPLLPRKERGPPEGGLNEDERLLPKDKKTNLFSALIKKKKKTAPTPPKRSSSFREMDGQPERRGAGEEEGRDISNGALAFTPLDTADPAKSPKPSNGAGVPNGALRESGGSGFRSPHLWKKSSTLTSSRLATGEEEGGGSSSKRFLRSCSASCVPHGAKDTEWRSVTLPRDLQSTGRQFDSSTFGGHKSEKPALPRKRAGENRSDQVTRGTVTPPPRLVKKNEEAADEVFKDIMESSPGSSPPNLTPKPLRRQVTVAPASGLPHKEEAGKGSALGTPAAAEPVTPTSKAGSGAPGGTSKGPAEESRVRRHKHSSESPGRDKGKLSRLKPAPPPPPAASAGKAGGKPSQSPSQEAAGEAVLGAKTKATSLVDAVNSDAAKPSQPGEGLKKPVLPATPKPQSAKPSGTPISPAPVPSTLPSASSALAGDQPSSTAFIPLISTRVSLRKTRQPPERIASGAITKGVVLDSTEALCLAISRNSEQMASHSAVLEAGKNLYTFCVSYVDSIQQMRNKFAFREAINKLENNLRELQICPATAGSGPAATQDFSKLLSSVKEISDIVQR
- Sequence (P11274 whole entry, further chain, the tested form may be a part): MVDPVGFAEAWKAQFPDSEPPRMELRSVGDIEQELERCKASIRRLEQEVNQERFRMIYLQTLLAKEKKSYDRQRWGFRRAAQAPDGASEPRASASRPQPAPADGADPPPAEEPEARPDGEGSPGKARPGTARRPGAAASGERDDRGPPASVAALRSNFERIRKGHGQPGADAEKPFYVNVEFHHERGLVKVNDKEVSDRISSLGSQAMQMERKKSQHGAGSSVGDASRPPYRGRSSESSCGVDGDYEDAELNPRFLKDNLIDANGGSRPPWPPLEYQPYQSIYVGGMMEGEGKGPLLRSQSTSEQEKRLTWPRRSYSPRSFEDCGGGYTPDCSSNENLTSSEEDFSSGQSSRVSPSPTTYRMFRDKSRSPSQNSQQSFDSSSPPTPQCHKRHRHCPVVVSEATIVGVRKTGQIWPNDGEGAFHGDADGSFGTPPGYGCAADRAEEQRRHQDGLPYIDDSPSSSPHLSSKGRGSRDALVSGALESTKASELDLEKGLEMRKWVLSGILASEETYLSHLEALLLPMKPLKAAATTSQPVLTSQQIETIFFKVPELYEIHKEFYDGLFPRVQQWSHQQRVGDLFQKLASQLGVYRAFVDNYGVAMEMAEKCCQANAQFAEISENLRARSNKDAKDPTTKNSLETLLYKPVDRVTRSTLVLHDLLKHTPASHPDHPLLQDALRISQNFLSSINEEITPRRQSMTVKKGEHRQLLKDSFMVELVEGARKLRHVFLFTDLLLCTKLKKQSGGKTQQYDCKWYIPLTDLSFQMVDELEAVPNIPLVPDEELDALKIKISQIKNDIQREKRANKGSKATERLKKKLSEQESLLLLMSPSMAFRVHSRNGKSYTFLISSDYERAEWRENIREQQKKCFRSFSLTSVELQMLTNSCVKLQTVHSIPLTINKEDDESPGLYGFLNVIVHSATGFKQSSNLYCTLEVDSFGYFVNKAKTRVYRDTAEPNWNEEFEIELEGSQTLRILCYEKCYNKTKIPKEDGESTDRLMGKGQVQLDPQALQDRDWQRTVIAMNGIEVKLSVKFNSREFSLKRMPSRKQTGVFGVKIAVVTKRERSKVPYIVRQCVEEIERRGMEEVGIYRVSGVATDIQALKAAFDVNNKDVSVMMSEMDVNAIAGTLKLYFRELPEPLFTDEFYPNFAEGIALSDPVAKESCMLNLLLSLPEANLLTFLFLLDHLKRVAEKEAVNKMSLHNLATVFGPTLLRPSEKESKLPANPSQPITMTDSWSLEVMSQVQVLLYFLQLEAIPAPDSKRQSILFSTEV
- assay.procedure: Inhibition of BRC/ABL1 (unknown origin) after 40 mins by ADP-Glo assay
measured.property: IC50 (nM)

>>> readout_number("O=C(c1ccc(F)cc1)N1CCN(c2nc(N3CCOCC3)ncc2Br)CC1")
24
>>> readout_number("O=S(=O)(c1ccc2ccccc2c1)N1CCN(c2nc(N3CCOCC3)ncc2Br)CC1")
440
>>> readout_number("CC(C)(C)c1ccc(S(=O)(=O)N2CCN(c3nc(N4CCOCC4)ncc3Br)CC2)cc1")
1150
>>> readout_number("O=[N+]([O-])c1cc(C(F)(F)F)ccc1S(=O)(=O)N1CCN(c2nc(N3CCOCC3)ncc2Br)CC1")
20.6

[a] O=C(c1ccc(C(F)(F)F)cc1)N1CCN(c2nc(N3CCOCC3)ncc2Br)CC1
[b] O=S(=O)(C1CC1)N1CCN(c2nc(N3CCOCC3)ncc2Br)CC1
Just curious, which one has the larger IC50 reading, a or b ? Response format: the label of the selected entry.
b
(b: 220 nM, a: 24 nM)

Values from ChEMBL document CHEMBL3853293
